Reference source: ChEMBL document CHEMBL3286274

Experiment: Cytotoxicity against human MT4 cells infected with HIV-1 3B assessed as reduction in cell viability by MTT assay
Format: cell-based

{"columns": ["compound", "qualifier-operator", "CC50 [µM]"],
 "data": [
  ["O=C(NCc1ccccc1)c1c(O)n(O)c(=O)c2cc([N+](=O)[O-])ccc12", "=", 118],
  ["O=C(NCc1ccc(F)cc1)C1C(=O)N(O)C(=O)c2c(F)cccc21 (centres undefined)", "=", 149],
  ["O=C(NCc1ccc(F)cc1)C1C(=O)N(O)C(=O)c2cc(C(F)(F)F)ccc21 (centres undefined)", ">", 56],
  ["CC(=O)Nc1ccc2c(c1)C(=O)N(O)C(=O)C2C(=O)NCc1ccc(F)cc1 (centres undefined)", "=", 149],
  ["O=C(Nc1ccc2c(c1)C(=O)N(O)C(=O)C2C(=O)NCc1ccc(F)cc1)c1ccccn1 (centres undefined)", "=", 1],
  ["O=C(NCc1ccc(F)cc1)C1C(=O)N(O)C(=O)c2cc(Cl)ccc21 (centres undefined)", "=", 106],
  ["O=C(NCc1ccc(F)cc1)c1c(O)n(O)c(=O)c2ccc([N+](=O)[O-])cc12", ">", 125],
  ["O=C(Nc1ccc2c(c1)C(=O)N(O)C(=O)C2C(=O)NCc1ccc(F)cc1)c1ccccc1 (centres undefined)", "=", 21],
  ["COc1ccc(CNC(=O)c2c(O)n(O)c(=O)c3cc([N+](=O)[O-])ccc23)cc1", ">", 250]
]}

====

Target: Human immunodeficiency virus type 1 reverse transcriptase (Human immunodeficiency virus 1)
Assay: Inhibition of recombinant HIV-1 reverse transcriptase-associated RNase H activity using [3H]-labeled RNA as substrate at 10 uM after 10 mins relative to control
Each entry below lists one item and its recorded inhibition value.

{"columns": ["compound", "units-text", "inhibition"],
 "data": [
  ["O=C(NCc1ccc(F)cc1)c1c(O)n(O)c(=O)c2ccc([N+](=O)[O-])cc12", "%", 48.2],
  ["Nc1ccc2c(c1)C(=O)N(O)C(=O)C2C(=O)NCc1ccc(F)cc1 (centres undefined)", "%", 29.4],
  ["O=C(Cc1cccs1)Nc1ccc2c(c1)C(=O)N(O)C(=O)C2C(=O)NCc1ccc(F)cc1 (centres undefined)", "%", 28.9],
  ["O=C(NCc1ccc(F)cc1)c1c(O)n(O)c(=O)c2cc([N+](=O)[O-])ccc12", "%", 78.7]
]}

====

Biological target: Human immunodeficiency virus type 1 integrase (Human immunodeficiency virus 1)
Sequence (Q7ZJM1 whole entry): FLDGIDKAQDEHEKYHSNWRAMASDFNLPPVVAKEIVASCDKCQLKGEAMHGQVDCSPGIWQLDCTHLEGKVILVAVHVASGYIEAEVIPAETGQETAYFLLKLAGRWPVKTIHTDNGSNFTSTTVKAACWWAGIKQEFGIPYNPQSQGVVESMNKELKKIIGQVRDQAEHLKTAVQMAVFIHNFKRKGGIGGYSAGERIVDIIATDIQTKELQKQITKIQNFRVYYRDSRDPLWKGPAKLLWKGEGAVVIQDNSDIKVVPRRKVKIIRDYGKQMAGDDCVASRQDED
Recorded IC50, one value per entry.

{"columns": ["molecule", "units-text", "IC50"],
 "data": [
  ["O=C(NCc1ccc(F)cc1)C1C(=O)N(O)C(=O)c2cc(Br)ccc21 (stereo not given)", "nM", 60],
  ["O=C(NCc1ccc(F)cc1)C1C(=O)N(O)C(=O)c2cc(C(F)(F)F)ccc21 (stereo not given)", "nM", 20],
  ["O=C(NCc1ccc(F)cc1)C1C(=O)N(O)C(=O)c2cc(F)ccc21 (stereo not given)", "nM", 240],
  ["O=C(NCc1ccc(F)cc1)C1C(=O)N(O)C(=O)c2ccc(F)cc21 (stereo not given)", "nM", 240],
  ["O=C(NCc1ccc(F)cc1)C1C(=O)N(O)C(=O)c2c(F)cccc21 (stereo not given)", "nM", 880]
]}

====

Test: in vitro
Conditions: human, MT4 cells infected with HIV-1 3B
Description: Therapeutic index, ratio of CC50 for human MT4 cells infected with HIV-1 3B to EC50 for HIV-1 3B infected in human MT4 cells

{"columns": ["compound", "selectivity ratio"],
 "data": [
  ["O=C(NCc1ccc(F)cc1)C1C(=O)N(O)C(=O)c2cc(C(F)(F)F)ccc21 (stereo unspecified)", "> 94"],
  ["COc1ccc(CNC(=O)c2c(O)n(O)c(=O)c3cc([N+](=O)[O-])ccc23)cc1", "> 84"],
  ["O=C(NCCc1ccc(F)cc1)c1c(O)n(O)c(=O)c2cc([N+](=O)[O-])ccc12", "> 262"],
  ["N#Cc1ccc2c(C(=O)NCc3ccc(F)cc3)c(O)n(O)c(=O)c2c1", "> 187"],
  ["O=C(NCc1ccc(F)cc1)c1c(O)n(O)c(=O)c2ccc([N+](=O)[O-])cc12", "> 463"],
  ["CCCCCCNC(=O)c1c(O)n(O)c(=O)c2cc([N+](=O)[O-])ccc12", "> 59"]
]}

====

Biological target: Human immunodeficiency virus type 1 reverse transcriptase (Human immunodeficiency virus 1)
Assay: Inhibition of recombinant HIV-1 reverse transcriptase-associated RNase H activity using [3H]-labeled RNA as substrate at 10 uM after 10 mins relative to control
Note to self: values exactly at 50% are yes (1). So inhibition at or above 50% is yes (1), below is no (0).

{"columns": ["compound", "qualitative-label"],
 "data": [
  ["O=C(NCc1ccc(F)cc1)C1C(=O)N(O)C(=O)c2c(F)cccc21 (stereo not drawn)", "no (0)"],
  ["O=C(NCc1ccc(F)cc1)C1C(=O)N(O)C(=O)c2cc(Cl)ccc21 (stereo not drawn)", "no (0)"],
  ["O=C(Cc1ccccc1)Nc1ccc2c(c1)C(=O)N(O)C(=O)C2C(=O)NCc1ccc(F)cc1 (stereo not drawn)", "no (0)"],
  ["O=C(Nc1ccccc1)c1c(O)n(O)c(=O)c2cc([N+](=O)[O-])ccc12", "yes (1)"],
  ["O=C(NCc1ccc(F)cc1)C1C(=O)N(O)C(=O)c2ccc(F)cc21 (stereo not drawn)", "no (0)"],
  ["O=C(Nc1ccc2c(c1)C(=O)N(O)C(=O)C2C(=O)NCc1ccc(F)cc1)c1ccccc1 (stereo not drawn)", "no (0)"],
  ["O=C(NCc1ccccc1)c1c(O)n(O)c(=O)c2cc([N+](=O)[O-])ccc12", "yes (1)"]
]}

====

# CC50 per entry
Experiment: Cytotoxicity against human MT4 cells infected with HIV-1 3B assessed as reduction in cell viability by MTT assay
Assay type: cell-based
value-type: CC50

{"columns": ["compound-smiles", "recorded-measurement"],
 "data": [
  ["N#Cc1ccc2c(C(=O)NCc3ccc(F)cc3)c(O)n(O)c(=O)c2c1", "> 125 µM"],
  ["CCCCCCNC(=O)c1c(O)n(O)c(=O)c2cc([N+](=O)[O-])ccc12", "> 250 µM"],
  ["Cc1nnc(C(=O)NC(C)(C)c2nc(C(=O)NCc3ccc(F)cc3)c(O)c(=O)n2C)o1", "> 8 µM"]
]}

====

Assay: Cytotoxicity against human MT4 cells infected with HIV-1 3B assessed as reduction in cell viability by MTT assay
Type: cell-based
value-type: CC50 (µM)

{"columns": ["compound", "value-type", "units-text", "recorded-measurement"],
 "data": [
  ["O=C(NCc1ccc(F)cc1)C1C(=O)N(O)C(=O)c2cc(Br)ccc21 (stereo not drawn)", "CC50", "µM", 99.5],
  ["O=C(Nc1ccc(F)cc1)c1c(O)n(O)c(=O)c2cc([N+](=O)[O-])ccc12", "CC50", "µM", 186],
  ["O=C(Cc1ccccc1)Nc1ccc2c(c1)C(=O)N(O)C(=O)C2C(=O)NCc1ccc(F)cc1 (stereo not drawn)", "CC50", "µM", 31]
]}
